Below is a list of entries, each paired with its recorded IC50 value.
Target: recombinant human GST-Syk (Homo sapiens (Human))
Assay: Homogeneous Time-Resolved Fluorescence (HTRF) assay for the recombinant human Syk enzyme
Type: biochemical
Conditions: recombinant human GST-Syk 5 pM, ATP 25 μM, read-out: rhSyk IC50
Quantity Name: IC50 (nM)

1) Nc1cc(Nc2cc(C(F)(F)F)ccn2)nc(-c2ccc(NC3CCNC3=O)nc2)c1 (stereo not drawn) | 4
2) Cc1cc(Nc2cc(C(F)(F)F)ccn2)nc(-c2ccc(NC3CCN(C(=O)c4cnc5ccccn45)CC3)nc2)c1 | 7
3) Cc1cc(Nc2cc(C(F)(F)F)ccn2)nc(-c2ccc(NC3CCN(C(=O)Cc4cn(C)c5ccccc45)CC3)nc2)c1 | 7

----------
Target: recombinant human GST-Syk (Homo sapiens (Human), UniProt P43405)
Experiment: Homogeneous Time-Resolved Fluorescence (HTRF) assay for the recombinant human Syk enzyme
Conditions: recombinant human GST-Syk 5 pM, ATP 25 μM, read-out: rhSyk IC50
Below is a list of entries, each paired with its recorded IC50 value.
Quantity Name: IC50 (nM)

1. COc1ccccc1C(=O)N1CCC(Nc2ccc(-c3cc(C)cc(Nc4cc(C(F)(F)F)ccn4)n3)cn2)CC1 | 6
2. Cc1cc(Nc2cc(C(F)(F)F)ccn2)nc(-c2ccc(NC3CCN(C(=O)c4ccccc4C#N)CC3)nc2)c1 | 6
3. COc1cccc(C(=O)N2CCC(Nc3ccc(-c4cc(C)cc(Nc5cc(C(F)(F)F)ccn5)n4)cn3)CC2)c1 | 6

----------
Below is a list of entries, each paired with its recorded IC50 value.
Target: recombinant human GST-Syk (Homo sapiens (Human))
Assay: Homogeneous Time-Resolved Fluorescence (HTRF) assay for the recombinant human Syk enzyme
Assay type: biochemical
Settings: recombinant human GST-Syk 5 pM, ATP 25 μM, read-out: rhSyk IC50
Quantity Name: IC50

1. Cc1cc(Nc2cc(C(F)(F)F)ccn2)nc(-c2ccc(NC3CCN(C(=O)c4cccc5c4NC(=O)C5)CC3)nc2)c1 | 6 nM
2. Cc1cc(Nc2cc(C(F)(F)F)ccn2)nc(-c2ccc(NC3CCN(C(=O)c4cc5ccccc5n4-c4ccccc4)CC3)nc2)c1 | 176 nM
3. Cc1cc(Nc2cc(C(F)(F)F)ccn2)nc(-c2ccc(N3CCC3C(=O)O)nc2)c1 (centres unmarked) [Example 2-18] | 33 nM
4. Cc1cc(Nc2cc(C(F)(F)F)ccn2)nc(-c2ccc(NC3CCN(C(=O)Cc4ccccc4Cl)CC3)nc2)c1 | 12 nM
5. Cc1cc(Nc2cc(C(F)(F)F)ccn2)nc(-c2ccc(NC3CCN(C(=O)c4cccc5c6c([nH]c45)CCCC6)CC3)nc2)c1 | 19 nM
6. Cc1cc(Nc2cc(C(F)(F)F)ccn2)nc(-c2ccc(NC3CCN(C(=O)c4cc(-n5cccn5)ccc4Cl)CC3)nc2)c1 | 30 nM
7. CCOC(=O)C1CCC(O)(c2ccc(-c3cc(C)cc(Nc4cc(C(F)(F)F)ccn4)n3)cn2)CC1 (centres unmarked) [Example 1-11] | 47 nM
8. Cc1cc(Nc2cc(C(F)(F)F)ccn2)nc(-c2ccc(N3CC(C4CCC(C(=O)O)CC4)C3)nc2)c1 (centres unmarked) | 3 nM
9. COCCOC(=O)[C@H]1CC[C@H](C(C)(O)c2ccc(-c3cc(C)cc(Nc4cc(C(F)F)ccn4)n3)cn2)CC1 (single isomer, unassigned) | 6.4 nM
10. COC(=O)C1CCC(O)(c2ccc(-c3cc(C)cc(Nc4cc(C(F)(F)F)ccn4)n3)cn2)CC1(C)C (single isomer, unassigned) [Example 1-6] | 405 nM
11. Cc1cc(Nc2cc(C(F)(F)F)ccn2)nc(-c2ccc(NC3CCN(C(=O)Cc4ccc5[nH]c(C)c(C)c5c4)CC3)nc2)c1 | 8 nM
12. Cc1cc(Nc2cc(C(F)F)ccn2)nc(-c2ccc(C(C)(O)[C@H]3CC[C@H](C(=O)O)CC3)nc2)c1 (single isomer, unassigned) [Example 16] | < 0.5 nM
13. CC(=O)OC(C)OC(=O)[C@H]1CC[C@H](C(C)(O)c2ccc(-c3cc(C)cc(Nc4cc(C(F)F)ccn4)n3)cn2)CC1 (single isomer, unassigned) [Example 21-2] | 4.3 nM
14. Cc1cc(Nc2cc(C(F)(F)F)ccn2)nc(-c2ccc(N3CCN(C(=O)N4CCCC(C(=O)O)C4)CC3)nc2)c1 (centres unmarked) | 2 nM
15. CC(O)(c1ccc(-c2cc(C3CC3)cc(Nc3cc(C(F)F)ccn3)n2)cn1)C1CCC(C(=O)O)CC1 (centres unmarked) | < 0.5 nM
16. Cc1cc(Nc2cc(C(F)(F)F)ccn2)nc(-c2ccc(NC3CCN(C(=O)Cc4cccc(C(F)(F)F)c4)CC3)nc2)c1 | 103 nM
17. Cc1cc(Nc2cc(C(F)(F)F)ccn2)nc(-c2ccc(NC3CCN(C(=O)c4ccc5ccccc5n4)CC3)nc2)c1 | 7 nM
18. Cc1cc(Nc2cc(C(F)(F)F)ccn2)nc(-c2ccc(NC3CCN(C(=O)CCCN4CCCC4=O)CC3)nc2)c1 | 1 nM
19. Cc1cc(Nc2cc(C(F)(F)F)ccn2)nc(-c2ccc(N3CCCC3C(=O)O)nc2)c1 (centres unmarked) [Example 2-17] | 39 nM
20. Cc1cc(Nc2cc(C(F)(F)F)ccn2)nc(-c2ccc(C3(O)CCC(C(=O)O)CC3)nc2)c1 (centres unmarked) [Example 1-19] | 3 nM

----------
Target: recombinant human GST-Syk (Homo sapiens (Human))
Assay: Homogeneous Time-Resolved Fluorescence (HTRF) assay for the recombinant human Syk enzyme
Conditions: recombinant human GST-Syk 5 pM, ATP 25 μM, read-out: rhSyk IC50
Below is a list of entries, each paired with its recorded IC50 value.
Quantity Name: IC50 (nM)

1. Cc1cc(Nc2cc(C(F)F)ccn2)nc(-c2ccc(C(C)(O)[C@H]3CC[C@H](C(=O)OC(C)OC(=O)OC4CCCCC4)CC3)nc2)c1 (single isomer, unassigned) [Example 20-4] | 510
2. Cc1cc(Nc2cc(C(F)(F)F)ccn2)nc(-c2ccc(NC3CCN(C(=O)c4ccc5[nH]ncc5c4)CC3)nc2)c1 [Example 4-98] | 5
3. COC(=O)C1CCC(C(O)(c2ccc(-c3cc(C)cc(Nc4cc(C(F)(F)F)ccn4)n3)cn2)C2CC2)CC1 (stereo not shown) [Example 1-17] | 16
4. COC(=O)[C@H]1CC[C@H](C(C)(O)c2ccc(-c3cc(C)cc(Nc4cc(C(F)F)ccn4)n3)cn2)CC1 (single isomer, unassigned) [Example 11] | 9

----------
Target: recombinant human GST-Syk (Homo sapiens (Human), UniProt P43405)
Assay: Homogeneous Time-Resolved Fluorescence (HTRF) assay for the recombinant human Syk enzyme
Details: recombinant human GST-Syk 5 pM, ATP 25 μM, read-out: rhSyk IC50
pIC50: −log10 of the molar value.
Quantity Name: pIC50

1) Cc1cc(Nc2cc(C(F)(F)F)ccn2)nc(-c2ccc(NC3CCN(C(=O)COc4ccccc4-c4ccccc4)CC3)nc2)c1 | 6.68
2) Cc1cc(Nc2cc(C(F)(F)F)ccn2)nc(-c2ccc(NC3CCN(C(=O)Cc4ccc(-c5ccccc5)cc4)CC3)nc2)c1 | 6.86
3) Cc1cc(Nc2cc(C(F)F)ccn2)nc(-c2ccc(C(C)(O)[C@H]3CC[C@H](C(=O)OC(C)OC(=O)OC(C)C)CC3)nc2)c1 (single isomer, unassigned) [Example 20-8] | 7.30
4) Cc1cc(Nc2cc(C(F)(F)F)ccn2)nc(-c2ccc(NC3CCN(C(=O)c4ccc5cc[nH]c5c4)CC3)nc2)c1 | 8.15
5) Cc1cc(Nc2cc(C(F)(F)F)ccn2)nc(-c2ccc(NC3CCC(C(=O)O)CC3)nc2)c1 (centres unmarked) [Example 2-24] | 9.00
6) Cc1cc(Nc2cc(C(F)(F)F)ccn2)nc(-c2ccc(N3CC[C@H](N)C3)nc2)c1 | 9.00
7) Cc1cc(Nc2cc(C(F)(F)F)ccn2)nc(-c2ccc(NC3CCN(C(=O)Cc4cccc5ccccc45)CC3)nc2)c1 | 7.28

----------
Target: recombinant human GST-Syk (Homo sapiens (Human))
Experiment: Homogeneous Time-Resolved Fluorescence (HTRF) assay for the recombinant human Syk enzyme
Type: biochemical
Details: recombinant human GST-Syk 5 pM, ATP 25 μM, read-out: rhSyk IC50
Below is a list of entries, each paired with its recorded IC50 value.
Quantity Name: IC50 (nM)

1) COc1ccc(C(=O)N2CCC(Nc3ccc(-c4cc(C)cc(Nc5cc(C(F)(F)F)ccn5)n4)cn3)CC2)cc1 | 5
2) Cc1cc(Nc2cc(C(F)(F)F)ccn2)nc(-c2ccc(C3(O)CCC(C(=O)O)C(C)(C)C3)nc2)c1 (stereo not drawn) [Example 1-25] | 1
3) Cc1cc(Nc2cc(C(F)F)ccn2)nc(-c2ccc(C(C)(O)[C@H]3CC[C@H](C(=O)OCCN4CCOCC4)CC3)nc2)c1 (single isomer, unassigned) | 8.7
4) COC(=O)C1CCC(O)(c2ccc(-c3cc(C)cc(Nc4cc(C(F)(F)F)ccn4)n3)cn2)CC1(C)C (single isomer, unassigned) [Example 1-9] | 100
5) Cc1cc(Nc2cc(C(F)F)ccn2)nc(-c2ccc(C(C)(O)[C@H]3CC[C@H](C(=O)O)CC3)nc2)c1Br (single isomer, unassigned) | 1
6) Cc1cc(Nc2cc(C(F)(F)F)ccn2)nc(-c2ccc(NC3CCN(C(=O)Cc4ccc(O)cc4)CC3)nc2)c1 | 3
7) Cc1cc(Nc2cc(C(F)(F)F)ccn2)nc(-c2ccc(N3CCC3C(=O)O)nc2)c1 (stereo not drawn) [Example 2-11] | 3
8) Cc1cc(Nc2cc(C(F)F)ccn2)nc(-c2ccc(C(C)(O)[C@H]3CC[C@H](C(=O)OC(C)OC(=O)OC4CCCCC4)CC3)nc2)c1 (single isomer, unassigned) [Example 20-9] | 140
9) Cc1cc(Nc2cc(C(F)(F)F)ccn2)nc(-c2ccc(C3(O)CCC(C(=O)O)C(C)(C)C3)nc2)c1 (stereo not drawn) [Example 1-24] | 8

Every entry's value here was drawn from patent US9145391B2.
